Test system: NCI-H1650
Method: Antiproliferative activity against human NCI-H1650 cells after 72 hrs by MTT assay
Assay type: functional, cell-based
Measurement context: NCI-H1650, 72 h
Recorded measurements of IC50, one per entry
Numeric answer only, unit µM assumed.

Known IC50 results, listed for orientation:
C=CCc1ccc(O)c(-c2cc(CC=C)ccc2O)c1    56.6
C=CCc1ccc(O)c(-c2cc(CC=C)cc(CN3CCC(N)CC3)c2O)c1    4.81
C=CCc1ccc(O)c(-c2ccc(O)c(CC=C)c2)c1    37.4

Given C=CCc1ccc(O)c(-c2cc(CC=C)cc(CN3CCCC(N)C3)c2O)c1 (stereo not given) , state its recorded IC50.
6.93

Given C=CCc1ccc(O)c(-c2cc(CC=C)cc(CN3CCN(CCOC)CC3)c2O)c1 , state its recorded IC50.
5.12
